Biological target: KRAS G12V (Homo sapiens (Human), UniProt P01116+P62937, G12V)
Sequence (P01116-2 other isoform, or with tags, fused parts or gaps G12V): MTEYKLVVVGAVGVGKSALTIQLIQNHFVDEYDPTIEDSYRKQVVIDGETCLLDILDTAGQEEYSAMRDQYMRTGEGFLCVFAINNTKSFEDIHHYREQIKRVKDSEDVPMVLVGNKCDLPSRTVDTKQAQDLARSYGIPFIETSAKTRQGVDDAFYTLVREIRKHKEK
Sequence (P62937 whole entry): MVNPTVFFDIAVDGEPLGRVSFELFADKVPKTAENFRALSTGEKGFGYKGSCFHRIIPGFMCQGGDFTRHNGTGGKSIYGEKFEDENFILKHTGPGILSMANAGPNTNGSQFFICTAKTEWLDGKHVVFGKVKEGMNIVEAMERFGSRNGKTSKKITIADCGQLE
Assay: Ras-Raf (BRAF RBD) disruption / FRET / MOA assay, KRAS G12V
Assay type: biochemical
Details: read-out: IC50* KRAS G12V FRET data
Attribute: IC50

The cases that follow already have their IC50 on record.
- molecule: "CCn1c(-c2cccnc2[C@H](C)OC)c2c3cc(ccc31)-c1csc(n1)C[C@H](NC(=O)[C@H](C(C)C)N1CCC3(CN(C(=O)C#CC(C)(C)N(C)C)C3)C1=O)C(=O)N1CCC[C@H](N1)C(=O)OCC(C)(C)C2 (atropisomer, axis not shown)"
  recorded-measurement: "> 10000 nM"
- molecule: "CC#CC(=O)N1CC(N(C)C(=O)N(C)[C@H](C(=O)N[C@H]2Cc3nc(cs3)-c3ccc4c(c3)c(c(-c3cccnc3[C@H](C)OC)n4CC)CC(C)(C)COC(=O)[C@@H]3CCCN(N3)C2=O)C(C)C)C1 (atropisomer, axis not shown)"
  recorded-measurement: "1000 to 10000 nM"

What IC50 value was documented for this molecule, CCn1c(-c2cccnc2[C@H](C)OC)c2c3cc(ccc31)-c1cc(O)cc(c1)C[C@H](NC(=O)[C@H](C(C)C)N(C)C(=O)c1ncc(NC(=O)/C=C/CN(C)C)s1)C(=O)N1CCC[C@H](N1)C(=O)OCC(C)(C)C2 (atropisomer, axis not shown) ?
100 to 1000 nM

Here is the next molecule: CO[C@@H](C)c1ncccc1-c1c2c3cc(ccc3n1CC(F)(F)F)-c1csc(n1)C[C@H](NC(=O)[C@H](C(C)C)N(C)C(=O)N1C[C@@H]3OCCN(C(=O)/C=C/CF)[C@@H]3C1)C(=O)N1CCC[C@H](N1)C(=O)OCC(C)(C)C2 (atropisomer, axis not shown)
100 to 1000 nM
